- TARGET_ENTITY: hMMP 9 (Homo sapiens, UniProt P14780)
- Construct: purchased R&D systems
- Sequence (P14780 107-707 limits assumed): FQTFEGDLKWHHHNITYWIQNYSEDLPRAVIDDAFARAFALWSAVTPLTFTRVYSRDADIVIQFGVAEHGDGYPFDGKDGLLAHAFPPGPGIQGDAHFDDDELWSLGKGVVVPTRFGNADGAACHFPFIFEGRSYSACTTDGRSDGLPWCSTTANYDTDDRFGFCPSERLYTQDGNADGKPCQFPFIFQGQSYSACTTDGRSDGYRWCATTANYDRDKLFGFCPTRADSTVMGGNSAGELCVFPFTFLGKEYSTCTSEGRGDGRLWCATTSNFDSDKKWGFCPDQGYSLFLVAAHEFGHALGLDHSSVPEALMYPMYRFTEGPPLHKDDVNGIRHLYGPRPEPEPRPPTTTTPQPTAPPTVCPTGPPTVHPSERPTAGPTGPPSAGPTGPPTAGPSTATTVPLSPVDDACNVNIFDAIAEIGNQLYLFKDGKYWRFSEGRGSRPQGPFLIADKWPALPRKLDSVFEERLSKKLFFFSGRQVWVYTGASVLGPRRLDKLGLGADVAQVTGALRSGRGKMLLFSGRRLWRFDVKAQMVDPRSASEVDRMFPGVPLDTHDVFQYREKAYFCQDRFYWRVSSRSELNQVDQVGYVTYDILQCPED
- TEST_METHOD_NOTES: Residual enzyme activity of other metalloproteases
- Format: biochemical
- CONDITION_DETAILS: 200 μM inhibitor; read-out: Residual enzyme activity MMP9
- Experimental: The determination of enzymatic activity was based on the cleavage of internally quenched peptide substrates. A typical assay of 250 μl total volume measured in black 96 well plates consisted of 100 μl buffer, 50 μl enzyme at a final concentration of 5e-8 M to 2e-10 M, 50 μl substrate (0.15 to 80 μM, in buffer, 0.5% DMSO) and 50 μl inhibitor solution (in buffer, 1% DMSO). In case of 125 μl assay volume (black 96 half area well plates) all volumes were cut in half. […]
remaining activity at 200 µM: recorded values
// return numeric value only (unit: %, not printed)

Answered examples (3):
INSERT INTO assay_data (molecule, unit_abbrev, obs_value) VALUES
  ('O=C(Cc1c(-c2ccccc2)n[nH]c1-c1ccccc1)NO [Example 1]', '%', 27),
  ('COc1ccc(-c2n[nH]c(-c3ccccc3)c2CC(=O)NO)cc1OC [Example 49]', '%', 44),
  ('O=C(Cn1c(-c2ccccc2)cc2ccccc21)NO [Example 25]', '%', 53);

# input molecule: O=C(Cc1c(-c2ccccc2)noc1-c1ccccc1)NO [Example 2] ; wanted: its remaining activity at 200 µM
16

Reported remaining activity at 200 µM, molecule O=C(Cc1c(-c2cccc(C(=O)O)c2)n[nH]c1-c1ccc(Cl)c(O)c1F)NO [Example 63] : ____
71

I would be grateful if you could share the reported remaining activity at 200 µM for O=C(Cc1c(-c2ccccc2)nn(Cc2ccc(C(=O)O)cc2)c1-c1ccccc1)NO [Example 40] .
30

Fill in the blank: the reported remaining activity at 200 µM of O=C(Cc1c(-c2ccc3c(c2)OCO3)n[nH]c1-c1ccccc1)NO [Example 50] is ____.
16

// returns reported remaining activity at 200 µM for input O=C(Cc1c(-c2ccccc2)nn(Cc2cccc(C(=O)O)c2)c1-c1ccccc1)NO [Example 41]
36

Recorded remaining activity at 200 µM of COc1cccc(-c2n[nH]c(-c3ccccc3)c2CC(=O)NO)c1 [Example 47] , please.
33
